# assayTarget: human AT1R (Homo sapiens, UniProt P30556)
# Sequence (P30556 1-359): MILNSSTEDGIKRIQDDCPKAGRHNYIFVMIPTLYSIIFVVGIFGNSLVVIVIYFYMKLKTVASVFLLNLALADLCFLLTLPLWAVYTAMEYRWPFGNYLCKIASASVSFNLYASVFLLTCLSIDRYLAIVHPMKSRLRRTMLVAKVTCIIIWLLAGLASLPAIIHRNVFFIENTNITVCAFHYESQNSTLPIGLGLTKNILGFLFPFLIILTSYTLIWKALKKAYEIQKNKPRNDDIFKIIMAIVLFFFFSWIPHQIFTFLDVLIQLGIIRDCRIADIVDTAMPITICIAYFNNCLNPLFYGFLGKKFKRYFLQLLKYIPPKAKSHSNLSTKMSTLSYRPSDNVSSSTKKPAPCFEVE
# procedureText: beta-arrestin2 recruitment assay (PathHunter), human AT1R
# Assay type: cell-based
# conditionInfo: 1 h, read-out: Span (relative to hAngII)
Where a SMILES comes first, the peptide text is derived from it. [ ]: non-standard residue; d: D form. Tle = CC(C)(C)[C@H](N)C(=O)O; Ac6c = NC1(C(=O)O)CCCCC1; Sar = CNCC(=O)O
measuredAttribute: Emax

*Q* State recorded Emax with human AT1R (Homo sapiens, UniProt P30556), entry CNCC(=O)N[C@@H](CCCNC(=N)N)C(=O)N[C@H](C(=O)N[C@@H](Cc1ccc(O)cc1)C(=O)NC1(C(=O)N[C@@H](Cc2c[nH]cn2)C(=O)N2CCC[C@H]2C(=O)N[C@@H](CCCCN)C(=O)O)CCCCC1)C(C)C [SEQ ID NO: 50, Sar-Arg-Val-Tyr-cyHex-His-Pro-Lys] (H-[Sar]RVY[Ac6c]HPK-OH) , no comment.
*A* < 101%

*Q* Look up and report Emax, with human AT1R (Homo sapiens, UniProt P30556) as system, for CNCC(=O)N[C@@H](CCCNC(=N)N)C(=O)N[C@H](C(=O)N[C@@H](Cc1ccc(O)cc1)C(=O)NC1(C(=O)N[C@@H](Cc2c[nH]cn2)C(=O)N2CCC[C@H]2C(=O)N[C@@H](C)C(=O)O)CCCC1)C(C)C
*A* < 101%

*Q* System human AT1R (Homo sapiens, UniProt P30556). Read-out Emax. Item CNCC(=O)N[C@@H](CCCNC(=N)N)C(=O)N[C@H](C(=O)N[C@@H](Cc1ccc(O)cc1)C(=O)N[C@H](C(=O)N[C@@H](Cc1c[nH]cn1)C(=O)N1CCC[C@H]1C(=O)N[C@H](C(=O)O)C(C)C)C(C)(C)C)C(C)C [SEQ ID NO: 29, Sar-Arg-Val-Tyr-AA02-His-Pro-Val] (H-[Sar]RVY[Tle]HPV-OH) . Report value.
*A* < 101%

----------
# assayTarget: rat AT1aR (Rattus norvegicus, UniProt P25095)
# Sequence (P25095 1-359): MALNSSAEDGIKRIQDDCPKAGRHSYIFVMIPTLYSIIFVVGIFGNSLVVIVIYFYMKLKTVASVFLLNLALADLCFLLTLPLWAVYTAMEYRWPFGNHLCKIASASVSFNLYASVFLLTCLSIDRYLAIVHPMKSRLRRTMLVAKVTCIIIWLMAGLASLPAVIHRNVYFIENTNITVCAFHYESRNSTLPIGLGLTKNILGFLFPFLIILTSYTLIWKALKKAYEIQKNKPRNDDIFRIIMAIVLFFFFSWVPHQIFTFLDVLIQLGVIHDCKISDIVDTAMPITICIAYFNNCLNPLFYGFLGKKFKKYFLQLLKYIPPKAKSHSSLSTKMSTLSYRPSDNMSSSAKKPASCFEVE
# procedureText: beta-arrestin2 recruitment assay (PathHunter), rat AT1aR
# Format: cell-based
# conditionInfo: 1 h, read-out: Span (relative to hAngII)
Where a SMILES comes first, the peptide text is derived from it. [ ]: non-standard residue; d: D form. Ac6c = NC1(C(=O)O)CCCCC1; Sar = CNCC(=O)O
Exercise: for every item that follows, state its recorded Emax.

*Q* For CC[C@H](C)[C@H](NC(=O)[C@@H]1CCCN1C(=O)[C@H](Cc1c[nH]cn1)NC(=O)[C@@H]1CCCN1C(=O)[C@H](Cc1ccc(O)cc1)NC(=O)[C@@H](NC(=O)[C@H](CCCNC(=N)N)NC(=O)CNC)C(C)C)C(=O)O [SEQ ID NO: 4, Sar-Arg-Val-Tyr-Pro-His-Pro-Ile] (H-[Sar]RVYPHPI-OH; N-terminus and C-terminus assumed) , write its Emax.
*A* < 105%

*Q* Write down Emax measured for item CNCC(=O)N[C@@H](CCCNC(=N)N)C(=O)N[C@H](C(=O)N[C@@H](Cc1ccc(O)cc1)C(=O)NC1(C(=O)N[C@@H](Cc2c[nH]cn2)C(=O)N2CCC[C@H]2C(=O)N[C@@H](CO)C(=O)O)CCCCC1)C(C)C [SEQ ID NO: 15, Sar-Arg-Val-Tyr-cyHex-His-Pro-Ser] (H-[Sar]RVY[Ac6c]HPS-OH)
*A* < 105%

----------
Could you please report measured pEC50 for the items listed next?
# assayTarget: rat AT1aR (Rattus norvegicus, UniProt P25095)
# Sequence (P25095 1-359): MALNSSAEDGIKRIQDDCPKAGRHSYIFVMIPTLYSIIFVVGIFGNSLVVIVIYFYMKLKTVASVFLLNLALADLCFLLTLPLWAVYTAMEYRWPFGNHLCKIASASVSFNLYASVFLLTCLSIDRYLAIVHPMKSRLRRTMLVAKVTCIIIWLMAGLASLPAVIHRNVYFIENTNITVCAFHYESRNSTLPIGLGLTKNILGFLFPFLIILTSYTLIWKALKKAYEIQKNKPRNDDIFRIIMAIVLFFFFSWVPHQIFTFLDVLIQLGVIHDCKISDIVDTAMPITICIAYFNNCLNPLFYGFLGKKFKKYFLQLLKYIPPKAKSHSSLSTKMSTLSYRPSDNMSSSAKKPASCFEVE
# procedureText: beta-arrestin2 recruitment assay (PathHunter), rat AT1aR
# Assay type: cell-based
# conditionInfo: read-out: EC50
pEC50: −log10 of the molar value. Where a SMILES comes first, the peptide text is derived from it. [ ]: non-standard residue; d: D form. Tle = CC(C)(C)[C@H](N)C(=O)O; Sar = CNCC(=O)O

*Q* For the compound CNCC(=O)N[C@@H](CCCNC(=N)N)C(=O)N[C@H](C(=O)N[C@@H](Cc1ccc(O)cc1)C(=O)NC1(C(=O)N[C@@H](Cc2c[nH]cn2)C(=O)N2CCC[C@H]2C(=O)N[C@@H](C)C(=O)O)CCCCC1)C(C)C , report pEC50.
*A* < 8.49

*Q* Identify measured pEC50 associated with CNCC(=O)N[C@@H](CCCNC(=N)N)C(=O)N[C@H](C(=O)N[C@@H](Cc1ccc(O)cc1)C(=O)N[C@H](C(=O)N[C@@H](Cc1c[nH]cn1)C(=O)N1CCC[C@H]1C(=O)N[C@H](C(=O)O)[C@@H](C)O)C(C)(C)C)C(C)C [SEQ ID NO: 30, Sar-Arg-Val-Tyr-AA02-His-Pro-Thr] (H-[Sar]RVY[Tle]HPT-OH)
*A* < 8.49

*Q* Output measured pEC50 for this item: CNCC(=O)N[C@@H](CCCNC(=N)N)C(=O)N[C@H](C(=O)N[C@@H](Cc1ccc(O)cc1)C(=O)N1CCC[C@H]1C(=O)N[C@@H](Cc1c[nH]cn1)C(=O)N1CCC[C@H]1C(=O)N[C@H](C)C(=O)O)C(C)C [SEQ ID NO: 60, Sar-Arg-Val-Tyr-Pro-His-Pro-D-Ala] (H-[Sar]RVYPHP[dA]-OH)
*A* < 8.49

----------
# assayTarget: human AT1R (Homo sapiens)
# Sequence (P30556 1-359): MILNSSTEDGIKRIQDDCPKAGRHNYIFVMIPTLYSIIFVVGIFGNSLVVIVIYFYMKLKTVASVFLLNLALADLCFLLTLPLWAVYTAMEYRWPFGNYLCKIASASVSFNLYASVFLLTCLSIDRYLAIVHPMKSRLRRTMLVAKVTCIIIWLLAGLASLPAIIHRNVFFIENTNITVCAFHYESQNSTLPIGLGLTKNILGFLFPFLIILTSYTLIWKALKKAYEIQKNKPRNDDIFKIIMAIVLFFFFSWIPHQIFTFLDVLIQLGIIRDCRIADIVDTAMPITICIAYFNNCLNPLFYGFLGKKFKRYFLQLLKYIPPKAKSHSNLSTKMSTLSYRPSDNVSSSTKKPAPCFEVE
# procedureText: beta-arrestin2 recruitment assay (PathHunter), human AT1R
# Format: cell-based
# conditionInfo: read-out: EC50
Where a SMILES comes first, the peptide text is derived from it. [ ]: non-standard residue; d: D form. Tle = CC(C)(C)[C@H](N)C(=O)O; Ac5c = NC1(C(=O)O)CCCC1; Sar = CNCC(=O)O
Kindly supply the reported EC50 values for the records listed here.

*Q* Give me measured EC50, please, for this compound: CNCC(=O)N[C@@H](CCCNC(=N)N)C(=O)N[C@H](C(=O)N[C@@H](Cc1ccc(O)cc1)C(=O)N[C@H](C(=O)N[C@@H](Cc1c[nH]cn1)C(=O)N1CCC[C@H]1C(=O)N[C@H](C(=O)O)C(C)C)C(C)(C)C)C(C)C [SEQ ID NO: 29, Sar-Arg-Val-Tyr-AA02-His-Pro-Val] (H-[Sar]RVY[Tle]HPV-OH)
*A* > 3.2 nM

*Q* Give reported EC50 value for CNCC(=O)N[C@@H](CCCNC(=N)N)C(=O)N[C@H](C(=O)N[C@@H](Cc1ccc(O)cc1)C(=O)NC1(C(=O)N[C@@H](Cc2c[nH]cn2)C(=O)N2CCC[C@H]2C(=O)N[C@@H](CC(C)C)C(=O)O)CCCC1)C(C)C [SEQ ID NO: 19, Sar-Arg-Val-Tyr-cyPen-His-Pro-Leu] (H-[Sar]RVY[Ac5c]HPL-OH)
*A* > 3.2 nM

*Q* State, in one line, measured EC50 of CNCC(=O)N[C@@H](CCCNC(=N)N)C(=O)N[C@H](C(=O)N[C@@H](Cc1ccc(O)cc1)C(=O)N[C@H](C(=O)N[C@@H](Cc1c[nH]cn1)C(=O)N1CCC[C@H]1C(=O)N[C@H](C(=O)O)[C@@H](C)O)C(C)(C)C)C(C)C [SEQ ID NO: 30, Sar-Arg-Val-Tyr-AA02-His-Pro-Thr] (H-[Sar]RVY[Tle]HPT-OH)
*A* > 3.2 nM
